Hello, the source for this data is patent US20180355050A1, in case you need it.

TEST_TARGET: T1, recombinant human CD40L (human, UniProt P29965 108-261, limits assumed)
T1 construct: Bought soluble recombinant protein (R&D, HEK, 6420-CL/CF); also called hCD40L; human CD40L (HEK, R&D)
T1 sequence: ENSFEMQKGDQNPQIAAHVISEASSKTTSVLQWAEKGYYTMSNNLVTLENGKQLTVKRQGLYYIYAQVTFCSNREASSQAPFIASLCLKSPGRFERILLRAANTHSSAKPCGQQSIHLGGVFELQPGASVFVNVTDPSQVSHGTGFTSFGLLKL
TEST_METHOD_NOTES: FACS ligand competition, biotinylated human CD40L on cyno CD40 HEK cells
Kindly state pIC50 for each of the entries shown.
Remember, pIC50 is on a log scale: it is -log10 of the molar concentration.

Data request: Look up pIC50: C0100028B02 (VHH, Monovalent Nanobody produced in P. pastoris (pAX205); Detected with anti-FLAG reagents, but the tag of the monovalent form is not spelled out; also called C01000028B02) VHH: EVQLVESGGGLVQPGGSLRLSCAASGFTLEYYAIGWFRQAPGKEREGVSCISSEGSTSYTDSVKGRFTISRDNAKNTVYLQMNSLKPEDTAVYYCATDPDRGFLGSSCDTQSHQYDYWGQGTLVTVSS
Data returned: 8.33

Data request: Would you mind telling me what pIC50 value was observed for C0100044B07 (VHH, Monovalent Nanobody; tag of the monovalent form not spelled out; also called C01000044B07) VHH: EVQLVESGGGLVQPGGRLRLSCAASGFTLDYYALAWFRQAPGKEREGVSCISSSEGSTDYADYADSVKGRFTISRDTAKNTVYLQMNNLKPEDTAVYYCATDETTFFSGSCTLSAATFGSWGQGTLVTVSS ?
Data returned: 8.28

Data request: Looking for the measured pIC50 of C0100029C10 (VHH, Monovalent Nanobody; tag of the monovalent form not spelled out; also called C01000029C10) VHH: EVQLVESGGGLVQPGGSLRLSCAASGFTLDYYALGWFRQAPGKEREGVSCISSTESSDGSTYYADSVKGRFTISRDSAKNTVYLQMNSLKPEDTAVYYCATDQTLFGVCRGIATPDPGFWGQGTLVTVSS , can you help?
Data returned: 8.09

Data request: Fill blank: measured pIC50 of the binder C0100046B03 (VHH, Monovalent Nanobody; tag of the monovalent form not spelled out; also called C01000046B03) VHH: EVQLVESGGGLVQAGGSLRLSCAASGRTPLNYHMAWFRQAPGKEREFVAAISSLLGSTDYSDSLKDRFTISRDNAKATLYLRMNNLKPEDTAVYYCAARETTHYSTSDRVNEMRHYDYWGQGTLVTVSS is ____.
Data returned: 7.64
